- experimental system: human DGKα (Homo sapiens (Human))
- protocol text: DGKα Biochemical Activity Assay (ADP-Glo)
- condition label: recombinant DGKα 1 nM, 100 μM ATP, 18:1 DAG/POPS/octylglucoside micelles, 1 hour at 25° C.; geometric mean; read-out: HTBS DGKa 1X ATP KM IC50
property measured: IC50 (nM)

Consider the reported IC50 for these molecules:
Cc1nnc2nc(N(CC(F)F)c3cc(F)cc(C#CC(C)(C)O)c3)c3cc(F)cnc3n12    38.9
COc1ccc2c(N(C)c3cccc(-c4ccc(S(F)(F)(F)(F)F)cc4)c3)nc3nncn3c2n1    448

1: CN(c1cccc(Cl)c1)c1nc2nncn2c2nc(N)ccc12
2: CN(c1cc(F)cc(C#CC2(C(F)F)CC2)c1)c1nc2nnnn2c2ccc(F)cc12
[ask] Given 1 and given 2 , which shows the smaller recorded IC50? Let me know the label of the one you choose.
[reply] 2

###

- experimental system: human DGKα (Homo sapiens (Human), UniProt P23743)
- Sequence (P23743 whole entry): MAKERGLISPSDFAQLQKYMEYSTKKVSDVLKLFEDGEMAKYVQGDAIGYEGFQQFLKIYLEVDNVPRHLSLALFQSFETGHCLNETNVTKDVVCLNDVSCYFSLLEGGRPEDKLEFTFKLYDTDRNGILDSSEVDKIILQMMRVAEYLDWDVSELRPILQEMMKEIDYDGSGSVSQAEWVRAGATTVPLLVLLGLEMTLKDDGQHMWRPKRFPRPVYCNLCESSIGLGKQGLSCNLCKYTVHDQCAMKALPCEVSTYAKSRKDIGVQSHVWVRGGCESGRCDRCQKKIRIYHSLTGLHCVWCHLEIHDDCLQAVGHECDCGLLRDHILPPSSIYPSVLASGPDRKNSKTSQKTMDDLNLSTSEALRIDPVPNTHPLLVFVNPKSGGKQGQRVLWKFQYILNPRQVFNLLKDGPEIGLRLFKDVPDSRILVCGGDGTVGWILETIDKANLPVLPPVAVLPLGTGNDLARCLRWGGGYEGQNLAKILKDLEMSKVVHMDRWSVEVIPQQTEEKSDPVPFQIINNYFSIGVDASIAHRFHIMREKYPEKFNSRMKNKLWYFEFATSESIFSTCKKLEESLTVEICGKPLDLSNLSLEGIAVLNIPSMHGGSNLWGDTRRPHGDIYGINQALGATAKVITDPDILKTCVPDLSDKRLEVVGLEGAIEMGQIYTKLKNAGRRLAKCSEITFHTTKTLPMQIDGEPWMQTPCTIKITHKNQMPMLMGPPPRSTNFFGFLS
- protocol text: DGKα Biochemical Activity Assay (ADP-Glo)
- condition label: recombinant DGKα 1 nM, 100 μM ATP, 18:1 DAG/POPS/octylglucoside micelles, 1 hour at 25° C.; geometric mean; read-out: HTBS DGKa 1X ATP KM IC50
- Source text: Alternatively, the enzymatic activity of human DGKα was monitored in a biochemical assay in the presence or absence of compounds and using micelles containing 18:1 Diacylglycerol (DAG), 16:0-18:1 PS (POPS) and Octylglucoside as substrate. DGKα activity led to conversion of DAG and ATP to Phosphatidic Acid (PA) and ADP. Levels of ADP were monitored by bioluminescence using the ADP-Glo Kinase Assay (Promega) and were indicative of DGKα activity. […]
property measured: IC50 (nM)

Known results for compounds:
Fc1cnc2c(c1)c(N1CCCc3c(C#CC4(C(F)(F)F)CC4)cccc31)nc1nncn12    8.44
CN(c1cccc(C#CC(C)(C)O)c1)c1nc2nccn2c2cc(Cl)ccc12    165
CCN(c1cc(F)cc(-c2ccc(N3CC4(CC4)CS3(=O)=O)nc2)c1)c1nc2nnnn2c2cc(Cl)ccc12    117
Cc1nnc2nc(N(CC(F)F)c3ccnc(C#CC4(C(F)(F)F)CC4)c3)c3c(F)cncc3n12    16
CN(c1cccc(-c2ccc(N3CCCS3(=O)=O)cc2)c1)c1nc2nnnn2c2cc(Cl)ccc12    28.4

1: Cc1nnc2nc(N3CCCCc4c(C#CC(C)(C)C(C)(F)F)cccc43)c3c(F)cncc3n12
2: CC(C)(O)C#Cc1cc(N(CC(F)F)c2nc3nncn3c3cncc(F)c23)ccn1
[ask] Which one would you say has the larger IC50 value: 1 , or 2 ? // caller expects the label of the chosen entry
[reply] 2

###

- experimental system: human DGKα (Homo sapiens (Human), UniProt P23743)
- protocol text: DGKα Biochemical Activity Assay (ADP-Glo)
- condition label: recombinant DGKα 1 nM, 100 μM ATP, 18:1 DAG/POPS/octylglucoside micelles, 1 hour at 25° C.; geometric mean; read-out: HTBS DGKa 1X ATP KM IC50
property measured: IC50 (µM)

CN(c1cc(F)cc(C#CC(C)(C)O)c1)c1nc2nncn2c2cncc(F)c12 [Example 92]    0.0174
CN(c1cccc(-c2ccc(N3CCCS3(=O)=O)cc2)c1)c1nc2nncn2c2cnccc12 [Example 59]    0.0452
Cc1nnc2nc(N3CCOCc4c(C#CC(C)(C)C#N)cccc43)c3ccc(C(F)(F)F)nc3n12 [Example 138]    0.00656
Fc1cnc2c(c1)c(N1CCCc3c(C#CC4(C(F)F)CC4)cccc31)nc1nncn12 [Example 108]    0.00343

1: CN(c1cc(F)cc(C#CC(C)(C)C(F)F)c1)c1nc2nnnn2c2ccc(F)cc12 [Example 12]
2: CN(c1cccc(-c2ccc(C3CC3)nc2)c1)c1nc2nncn2c2cnccc12 [Example 62]
[ask] I need your help: which of the pair 1 , 2 has higher IC50? // return label of chosen record
[reply] 2
(2: 0.159 µM, 1: 0.107 µM)

a: CN(c1cccc(C#CC2(C(F)(F)F)CC2)c1)c1nc2nncn2c2ncc(F)cc12 [Example 154]
b: Cc1nnc2nc(N(CC(F)F)c3cc(F)cc(C#CC(C)(C)C(F)(F)F)c3)c3cc(F)cnc3n12 [Example 103]
[ask] Which is greater in IC50, the first item a or the second item b ? The response must carry the label of the picked entry.
[reply] a
(a: 0.0207 µM, b: 0.00934 µM)

A: Cc1nnc2nc(N3CCCc4c(C#CC(C)(C)C(F)(F)F)cccc43)c3ncccc3n12 [Example 21]
B: Cc1nnc2nc(N3CCCc4c3ccnc4C#CC(C)(C)C(F)(F)F)c3c(F)cncc3n12 [Example 30]
C: Cc1nnc2nc(N3CCOCc4c(C#Cc5cnn(C)c5)cccc43)c3c(F)cncc3n12 [Example 95]
D: Cc1nnc2nc(N3CCCc4c3ccnc4C#CC3(C(C)(F)F)CC3)c3c(F)cncc3n12 [Example 29]
E: CN(c1cccc(Br)c1)c1nc2nnnn2c2cc(Cl)ccc12 [Example 11]
[ask] Would you mind ranking these molecules by ascending IC50? Present the labels in the sequence the task asks for.
[reply] C, B, D, A, E
(C: 0.00695 µM, B: 0.0248 µM, D: 0.0377 µM, A: 0.0739 µM, E: 0.43 µM)

A: Cc1nnc2nc(N(CC(F)F)c3cc(F)cc(C#CC4(C(F)(F)F)CC4)c3)c3cc(F)cnc3n12 [Example 106]
B: Cc1nnc2nc(N3CCCc4c3ccnc4C#CC3(C)CC3)c3c(F)cncc3n12 [Example 32]
[ask] // which entry has the larger IC50 value, A or B ? Please respond with the label that marks your chosen entry.
[reply] B
(B: 0.0126 µM, A: 0.00642 µM)

A: CC1(C#Cc2cccc3c2CCCN3c2nc3nncn3c3cnccc23)CC1 [Example 82]
B: CN(c1cncc(-c2ccc(C3CC3)cc2)n1)c1nc2nncn2c2cnccc12 [Example 57]
C: CN(c1cccc(C#CC(C)(C)C)c1)c1nc2nncn2c2ncc(F)cc12 [Example 152]
D: Cc1nnc2nc(N3CCCc4c(C#CC(C)(C)C#N)cccc43)c3c(F)cncc3n12 [Example 97]
[ask] Given 4 molecules, produce a descending ranking by IC50. Please write the labels in the order that was asked for.
[reply] B, C, A, D
